Collected viability values appear next to each entry.
# methodNotes: MRP1 drug-resistance reversers in H69AR cells – cell-based, doxorubicin co-treatment, pilot screen (AID 601)
# testSettings: H69AR cells + 2 uM doxorubicin, CellTiter-Glo, 72 h; measured here: viability with 2 uM doxorubicin; at 10 µM; stronger effect = lower value
Give the number; % is assumed, so skip it.

Example entries begin here.
Req: Look up and report measured viability for this entry: CC(=O)N1CC(=O)Nc2ccc(Cl)cc2C1c1ccc(F)cc1 (stereo not given)
Resp: 72

Req: Answer with reported viability of COC(=NC1CCCC1)C(O)c1c[nH]c2ccccc12 (stereo not given)
Resp: 106

Req: Give reported viability value for O=C(CN1C(=O)CN=C(c2ccccc2)c2ccccc21)NCc1ccco1
Resp: 81.7

Req: Find the measured viability of CCOc1cccc(N2C(=O)CC(=O)NC2=O)c1 and report it.
Resp: 96.8

Req: // Input: Cc1ccccc1-n1c(O)c(C=NCCN2CCOCC2)c(=O)[nH]c1=O . Output its viability only.
Resp: 95.5

Req: Specify reported viability for the molecule shown: COCCOC(=O)C1=C(N)Oc2c(c(=O)oc3ccccc23)C1c1ccncc1 (stereo not given)
Resp: 87.7

Req: Tell us which viability value is on record for CCN1CCN(C(=O)COc2cc(=O)n(CC)c3ccccc23)CC1
Resp: 67.6

Req: Complete the entry with viability for C#CCN(C)C(C)Cc1ccccc1 (stereo not given)
Resp: 104

Req: Answer with the recorded viability for the molecule listed here: CC1(C)CC(=O)C=C(NCCN2CCN(C(=O)Cc3ccc(Cl)cc3)CC2)C1
Resp: 95.9

Req: Determine from records and report viability for COc1ccccc1N1CCN(Cc2cccc(OC)c2O)CC1
Resp: 86.6

New cases:
Req: Quickly give me recorded viability for CC(=NCCCN1CCOCC1)c1c(O)n(-c2ccccc2C)c(=O)[nH]c1=O
Resp: 87

Req: Determine its reported viability: CCc1ccc(OCCCN=C(C)c2c(O)n(C)c(=O)n(C)c2=O)cc1
Resp: 83.8

Req: Name the recorded viability of the item Cc1ccc(CS(=O)(=O)CCC(=O)N2CCC3(CC2)OCCO3)cc1 in your answer.
Resp: 87.7

Req: Supply reported viability belonging to this molecule: C[C@H]1CCCC(=O)CCCCCc2cc(O)cc(O)c2C(=O)O1
Resp: 110

Req: Check the records and state viability for COc1ccc(OC)c(C2=NOC(C(=O)N3CCC4(CC3)OCCO4)C2)c1 (stereo not given)
Resp: 86

###

# methodNotes: MRP1 drug-resistance reversers in H69AR cells – cell-based, doxorubicin co-treatment, pilot screen (AID 601)
# testSettings: H69AR cells + 2 uM doxorubicin, CellTiter-Glo, 72 h; at 10 µM; stronger effect = higher value
Entries annotated with measured differential viability (reversal)
Respond numerically; units are % and should not be typed.

Field: example entries. Status: answers known.
Req: Specify reported differential viability (reversal) for the compound shown: CCN1c2nc3ccccn3c(=O)c2CC2(C(=O)N(C)C(=O)N(C)C2=O)C1C (stereo unspecified)
Resp: 5.97

Req: Tell me its differential viability (reversal) given CC(C)OCCCNC(=O)c1c(N)n(Cc2cccs2)c2nc3ccccc3nc12 as the entry.
Resp: -18.8

Req: Answer with the recorded differential viability (reversal) for the compound listed here: Cc1ccc(O)c(CN2CCN(c3ccccc3)CC2)c1
Resp: 11.5

Req: Determine from records and report differential viability (reversal) for CCOC(=O)c1cccc([P+](=O)O)c1
Resp: -0.595

Req: Please indicate differential viability (reversal) recorded for CC1CCN2c3nc4ccccn4c(=O)c3CC3(C(=O)N(C)C(=O)N(C)C3=O)C2C1 (stereo unspecified)
Resp: -8.53

Alright, here's another compound for you.
Req: Answer with reported differential viability (reversal) of c1ccc2c(c1)OCC(C1=NCCN1)O2 (stereo unspecified)
Resp: 9.15

###

# testedTarget: Pantothenate synthetase (Mycobacterium tuberculosis (strain ATCC 25618 / H37Rv)) (UniProt P9WIL5)
# Sequence (P9WIL5 whole entry, looked up): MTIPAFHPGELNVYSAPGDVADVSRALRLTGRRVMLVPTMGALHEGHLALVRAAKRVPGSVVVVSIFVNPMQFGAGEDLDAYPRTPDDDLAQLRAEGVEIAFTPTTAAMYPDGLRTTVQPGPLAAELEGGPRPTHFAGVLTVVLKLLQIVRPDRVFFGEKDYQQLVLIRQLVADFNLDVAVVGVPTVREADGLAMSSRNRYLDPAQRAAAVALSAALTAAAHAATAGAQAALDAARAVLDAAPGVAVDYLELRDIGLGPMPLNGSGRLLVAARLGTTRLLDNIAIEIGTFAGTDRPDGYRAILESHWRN
# methodNotes: Coupled enzyme confirmation of inhibitors against recombinant Mtb PanC (AID 375);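 note: 0% = full reaction with vehicle and 100% = no enzyme background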
# testSettings: coupled enzyme assay; at 10 µM, stronger effect = higher value
# reported inhibition; entries follow
Provide the reading as a plain figure in %.

Req: Given the molecule OC(CN1CCN(c2ccccn2)CC1)Cn1c2ccccc2c2ccccc21 (stereo unspecified) , write its reported inhibition.
Resp: 0

More entries:
Req: For the molecule Cc1cc(NS(=O)(=O)c2ccccc2)n(-c2ccccc2)n1 , give its measured inhibition value.
Resp: 0

Req: Report measured inhibition; entry is N#CC1=C(N)OC2=C(C(=O)CCC2)C1CCc1ccccc1 (stereo unspecified)
Resp: 1

Req: Report inhibition, nothing else, for this molecule: c1cnn(-c2cc(N3CCOCC3)ncn2)c1
Resp: 0

Req: Please supply the value of reported inhibition for the item CC1=C(C(=O)Nc2ccccc2)C(c2cccs2)C(C#N)=C(SCC#N)N1 (stereo unspecified)
Resp: 5

Req: State its inhibition: COc1ccc(OC)c(N2C(=O)NC(=O)C(CCc3ccncc3)(CCc3ccncc3)C2=O)c1
Resp: 0

Req: Please look at this molecule and report its inhibition: Cc1cccc(N(C)C(=O)c2coc(=O)c3ccccc23)c1
Resp: 0

Req: Return value of inhibition for input CN1CCN(C(=O)CCC(=O)c2ccc(F)cc2)CC1 , no commentary.
Resp: 9

Req: Consider the molecule CCN1CCN(c2c(Cl)cccc2NC(=O)c2ccc3c(c2)OCCO3)CC1 . State its measured inhibition.
Resp: 0

###

# testedTarget: Pantothenate synthetase (Mycobacterium tuberculosis (strain ATCC 25618 / H37Rv)) (UniProt P9WIL5)
# methodNotes: Coupled enzyme confirmation of inhibitors against recombinant Mtb PanC (AID 375);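 note: 0% = full reaction with vehicle and 100% = no enzyme background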
# testSettings: coupled enzyme assay; at 10 µM, stronger effect = higher value
measuredAttribute: inhibition (%)
Provide only the numeric value, understood in %.

Req: Given the compound CNCCCN1c2ccccc2CCc2ccccc21 , write its reported inhibition.
Resp: 0

Req: Specify inhibition for CC1=C(C(=O)Nc2ccccc2C)C(c2ccc(C)o2)N2C(=O)CSC2=N1 (centres undefined) and stop.
Resp: 0

---
Req: Return inhibition (reported value) for this compound: CC(C(=O)N1CCCCC1)n1ncn2cccc2c1=O (centres undefined)
Resp: 0

Req: Given CCCNc1nc2c(c(=O)n(C)c(=O)n2C)n1Cc1cccc(C)c1 , respond with its inhibition.
Resp: 0

Req: Give recorded inhibition. Cn1cnnc1SCC(=O)NCc1cccc(C(F)(F)F)c1
Resp: 0

###

# testedTarget: Pantothenate synthetase (Mycobacterium tuberculosis (strain ATCC 25618 / H37Rv))
# methodNotes: Coupled enzyme confirmation of inhibitors against recombinant Mtb PanC (AID 375);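 note: 0% = full reaction with vehicle and 100% = no enzyme background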
# testSettings: coupled enzyme assay; at 10 µM, stronger effect = higher value
The source made the active and inactive calls. No rule for the calls is given here.
measuredAttribute: inhibition

Below, each entry is followed by its recorded inhibition result.
Req: Give me measured inhibition, please, for this compound: COc1ccc(S(=O)(=O)Nc2ccc(Cl)cn2)c(C)c1C
Resp: 1% (inactive)

Req: Quote inhibition reported for COc1ccc(S(=O)(=O)NC(CC(=O)N2CCC3(CC2)OCCO3)c2ccco2)cc1 (stereo unspecified) please.
Resp: 0% (inactive)

Req: Report inhibition, nothing else, for this compound: Cc1ccc(S(=O)(=O)N(CCO)c2cc3c(s2)CCCC3)cc1
Resp: 0% (inactive)

Req: Return the recorded inhibition value; entry: CCOC(=O)C(CC)(CCC(=O)O)c1csc(N)n1 (stereo unspecified)
Resp: 0% (inactive)

Req: Dear colleague, please send me the reported inhibition for O=S(=O)(Nc1nc2ccccc2nc1NCc1ccco1)c1ccc(Cl)cc1 when you can.
Resp: 0% (inactive)

Let's switch to this compound now.
Req: For the compound Cc1cccc(C(=O)O)c1NC(=O)c1ccc(F)cc1 , give its reported inhibition.
Resp: 1% (inactive)

###

Reported values of inhibition for individual entries
# testedTarget: Pantothenate synthetase (Mycobacterium tuberculosis (strain ATCC 25618 / H37Rv))
# methodNotes: Coupled enzyme confirmation of inhibitors against recombinant Mtb PanC (AID 375);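 note: 0% = full reaction with vehicle and 100% = no enzyme background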
# testSettings: coupled enzyme assay; at 10 µM, stronger effect = higher value
Note: unit % is implicit; provide only the numeric part.

# count of solved cases: 4
Req: Input CNC(=O)Oc1ccc2c(c1)[C@]1(C)CCN(C)[C@@H]1N2C , output reported inhibition.
Resp: 4

Req: Report inhibition for Cc1ccc(-c2nc(CS(=O)CC(=O)N3CCC4(CC3)OCCO4)c(C)o2)cc1 (stereo not drawn)
Resp: 0

Req: State, in one line, measured inhibition of CC1Cc2cc(/C(O)=C3/C(=O)C(=O)N(CCN4CCOCC4)C3c3cccc(O)c3)ccc2O1 (stereo not drawn)
Resp: 6

Req: State, in one line, measured inhibition of CC(C(=O)NCCCN1CCOCC1)n1cccc1C(=O)c1ccccc1 (stereo not drawn)
Resp: 0

Others:
Req: Query inhibition for Cc1ccc(NC(=O)CNc2cccc(C)c2C)c(C)c1
Resp: 0

Req: Indicate the recorded inhibition value for this compound: Cc1c2c(nc3nc4ccccc4n13)CC(C)(C)CC2=O
Resp: 8

Req: Report inhibition, nothing else, for this compound: CCN(CC)CCN1C(=O)C(O)=C(C(=O)c2cccs2)C1c1ccccn1 (stereo not drawn)
Resp: 0
